- assay: Phase 1 clinical trial: COMPOUND A plasma pharmacokinetics
- Assay type: in vivo, human
- experimental_conditions: human, plasma, po, 15 mg, C1D1; 15 mg QD oral monotherapy, N=6; median (minimum, maximum); read-out: Tmax
- Method: The patients in this trial are intolerant of or resistant to standard therapy. COMPOUND A was orally administered at 2 mg, 5 mg, 8 mg, and 15 mg QD alone or 5 mg QD in combination with 500 mg of fulvestrant. Preliminary pharmacokinetic parameters are available from 23 participants following the 1st oral dose (Day 1 of Cycle 1) and at steady state (Day 15 of Cycle 1) and presented in Table 1. […]
measured_attribute: Tmax (h)
Your answer is read as h, so omit the unit and give the number.

Asked: For the compound COc1ccccc1S(=O)(=O)Nc1noc2cc(Cn3cccn3)cc(OC)c12 , give its reported Tmax.
Given back: 3.5

----------
- assay: Phase 1 clinical trial: COMPOUND A plasma pharmacokinetics
- Assay type: in vivo, human
- experimental_conditions: human, plasma, po, C1D15; 5 mg QD oral in combination with fulvestrant, N=4; median (minimum, maximum); read-out: Tmax
measured_attribute: Tmax (h)
Your answer is read as h, so omit the unit and give the number.

Asked: For the compound COc1ccccc1S(=O)(=O)Nc1noc2cc(Cn3cccn3)cc(OC)c12 [COMPOUND A] , give its reported Tmax.
Given back: 6

Values from patent US20260027087A1
